Provide the recorded TGI for the entries that follow.
# Tested on: SK-MEL-28 melanoma
# assaySummary: NCI tumour cell line growth inhibition, 48 h

Name the recorded TGI of the compound listed here: `Oc1ccc(C=Nc2ccccc2O)cc1` > 100 µM

Name the recorded TGI of the compound listed here: N#CC(c1ccccc1)N(CCCCCCN(C(=O)c1ccccc1)C(C#N)c1ccccc1)C(=O)c1ccccc1 (centres undefined) > 100 µM

Name the recorded TGI of the compound listed here: `Cc1cc2nc(NCCN)n(Cc3ccc(F)c(Cl)c3)c2cc1C` 6.63 µM

Name the recorded TGI of the compound listed here: `CCCCCCCCCCCCCCCC1=NCC[N+]1(CCO)CCO` 16.8 µM

Name the recorded TGI of the compound listed here: `N#C/C(=C\c1ccc(F)cc1)c1nc(-c2cc3ccccc3oc2=O)cs1` > 100 µM

Name the recorded TGI of the compound listed here: `CNC(=O)c1c(C)oc2cc(Oc3ncnc4cc(OC)c(OC)cc34)ccc12` > 100 µM

Name the recorded TGI of the compound listed here: COC1/C=C(C)/C=C/C(C)/C=C/C(=O)OC(/C(C)=C/C=C(\C)CNC(=O)[C@H](CO)NC=O)C(C)/C=C/C=C/C(OC)CC/C=C(C)/C=C/C1 (some centres undefined) > 1 µM

Name the recorded TGI of the compound listed here: Cc1ccc(CC(Cc2ccccc2C)C(=O)O)c(C(=O)O)c1 (centres undefined) > 100 µM

Name the recorded TGI of the compound listed here: O=C1[C@H]2ON(c3ccccc3)C(c3ccc([N+](=O)[O-])cc3)[C@H]2C(=O)N1c1ccc(Cc2ccc(N3C(=O)[C@@H]4ON(c5ccccc5)C(c5ccc([N+](=O)[O-])cc5)[C@@H]4C3=O)cc2)cc1 (some centres undefined) > 100 µM

---

# Tested on: RPMI-8226 leukemia
# assaySummary: NCI tumour cell line growth inhibition, 48 h
measuredParameter: TGI

Name the recorded TGI of the compound listed here: `O=C(O)c1ccccc1C(=O)NCC1S(=O)(=O)OCCOS1(=O)=O` > 100 µM

Name the recorded TGI of the compound listed here: CCOc1cc(C2CC(c3ccc(NS(=O)(=O)c4cc([N+](=O)[O-])ccc4C)cc3)=NN2S(=O)(=O)c2cc([N+](=O)[O-])ccc2C)ccc1O (stereo not drawn) > 100 µM

Name the recorded TGI of the compound listed here: C[C@H](C1CC(C)(O)C(C)(O)C(O)O1)[C@H]1CC[C@H]2[C@@H]3[C@@H]4O[C@@H]4[C@@]4(O)CC=CC(=O)[C@]4(C)[C@H]3CC[C@]12C (stereo partly drawn) > 50 µM

Name the recorded TGI of the compound listed here: `COc1ccc(N=c2oc3ccccc3cc2C(N)=O)cc1` > 100 µM

Name the recorded TGI of the compound listed here: CC(=O)c1nc2ccccc2n1C(C)C(=O)c1ccccc1 (stereo not drawn) > 100 µM

Name the recorded TGI of the compound listed here: C/C(=N\N=C(N)N)C(CN1CCCCC1)C(c1ccccc1)c1c(O)c2ccccc2oc1=O (stereo not drawn) > 100 µM

Name the recorded TGI of the compound listed here: `CNC(=O)OCc1nc(SC)n(C)c1CO` > 100 µM

Name the recorded TGI of the compound listed here: `CN(Cc1ccccc1)Cn1ccnc1` > 78.1 µM

---

# Tested on: SK-MEL-5 melanoma
# assaySummary: NCI tumour cell line growth inhibition, 48 h
Where a SMILES comes first, the peptide text is derived from it. [ ]: non-standard residue; d: D form. The star is where a group is joined. ξ: configuration not given here. ξNMe2Val = CC(C)C(C(=O)*)N(C)C; NMeV = CN[CH](C(=O)O)C(C)C; NHBn = c1ccc(CN*)cc1
measuredParameter: TGI (nM)
Enter your answer as a number in nM; do not include the unit.

Name the recorded TGI of the compound listed here: COc1cc2c(cc1OC(C)C)[C@H](c1ccc(Cl)cc1)N(c1ccc(N(C)CC3CCC(N4CCN(C)C(=O)C4)CC3)cc1)C(=O)C2 (some centres undefined) 2840

Name the recorded TGI of the compound listed here: `CC(=O)Nc1ccc2c(c1)/C(=C\c1ccc([N+](C)(C)C)cc1)c1ccccc1-2` 61800

Name the recorded TGI of the compound listed here: CC(C)C(NC(=O)C(C(C)C)N(C)C)C(=O)N(C)C(C(=O)N1CCCC1C(=O)N1CCCC1C(=O)NCc1ccccc1)C(C)C (centres undefined) (ξNMe2Val-V[NMeV]PP-NHBn; configuration not given here) 0.265

---

# Test system: BT-549 breast
# assaySummary: NCI tumour cell line growth inhibition, 48 h
Provide the recorded TGI for the entries that follow.
Enter your answer as a number in µM; do not include the unit.

Name the recorded TGI of the compound listed here: CC1=C(C(=O)OC2CC3CCC2(C)C3(C)C)C2Nc3ccccc3N(C)C2O1 (stereo not given) 6.43

Name the recorded TGI of the compound listed here: `CCOC(=O)C1=CCCC[C@H]1S(=O)(=O)Nc1ccc(F)cc1Cl` 61

Name the recorded TGI of the compound listed here: `COc1cc(/C=C/c2cc(/C=C/c3ccc(O)c(OC)c3)n(C(=O)c3ccc(Cl)cc3)n2)ccc1O` 8.32

---

# Tested on: NCI-H226 lung
# assaySummary: NCI tumour cell line growth inhibition, 48 h
measuredParameter: TGI (µM)
Enter your answer as a number in µM; do not include the unit.

Name the recorded TGI of the compound listed here: `Cc1ccc2c(c1)SC1=Nc3sc4cc(C)ccc4[n+]3CN12` 75.2

Name the recorded TGI of the compound listed here: `Cc1onc(-c2ccccc2)c1C(=O)N/N=C/c1cc(Cl)cc(Cl)c1O` 72.7

Name the recorded TGI of the compound listed here: `Cc1ccc(O)c(NC(=O)c2cccc(Nc3ccnc(C(F)(F)F)c3)c2)c1` 23.4

Name the recorded TGI of the compound listed here: CC(/C=C/C(=O)NO)=C\C(C)C(=O)c1ccc(N(C)C)cc1 (centres undefined) 12.9

Name the recorded TGI of the compound listed here: C/C=C(\C)c1cc(=O)c2c(C)cc3c(c2o1)C(=O)c1c(O)c(C2CC(C)(N(C)C)C(OC(C)=O)C(C)O2)cc(C2CC(N(C)C)C(O)C(C)O2)c1C3=O (centres undefined) 5.57

---

# System: 786-0 renal
# assaySummary: NCI tumour cell line growth inhibition, 48 h
Where a SMILES comes first, the peptide text is derived from it. Bridges are numbered along the chain shown (N, C = ends). [ ]: non-standard residue; d: D form. The star is where a group is joined. ξ: configuration not given here. ξNMe2Val = CC(C)C(C(=O)*)N(C)C; NMeV = CN[CH](C(=O)O)C(C)C; Aib = CC(C)(N)C(=O)O; NHBn = c1ccc(CN*)cc1; βAla = NCCC(=O)O
measuredParameter: TGI

System 786-0 renal. Read-out TGI. Item CC(C)CC(NC(=O)C(C)(CI)Cc1ccccc1)C(=O)Nc1ccccc1 (stereo not drawn) . Report value. > 100 µM

System 786-0 renal. Read-out TGI. Item CC1Cc2c(Cl)ncnc2N(C)c2ccc(Cl)cc21 (stereo not drawn) . Report value. > 100 µM

System 786-0 renal. Read-out TGI. Item `Cc1cc2nc(NCCN)n(Cc3ccc(F)c(Cl)c3)c2cc1C` . Report value. 23.3 µM

System 786-0 renal. Read-out TGI. Item `O=C(CSc1nc2c(n1Nc1ccccc1)-c1ccccc1SC2)Nc1nc(-c2ccc(Cl)cc2)cs1` . Report value. 34.8 µM

System 786-0 renal. Read-out TGI. Item C=C(CCCCC)CN1CCCC1C(C)=O (stereo not drawn) . Report value. > 100 µM

System 786-0 renal. Read-out TGI. Item `Cc1cc2c(C(=O)NC[C@H](C)c3ccccc3)c(O)c(O)cc2c(O)c1-c1c(C)cc2c(C(=O)NC[C@H](C)c3ccccc3)c(O)c(O)cc2c1O` . Report value. 1.8 µM

System 786-0 renal. Read-out TGI. Item CCOC(=O)c1cc(C2CCN(c3ccccc3)C2=O)c(/C(O)=C/C(C)=O)[nH]1 (stereo not drawn) . Report value. > 100 µM

System 786-0 renal. Read-out TGI. Item `Cc1c(C)c2ccc3oc4ccccc4c3c2oc1=O` . Report value. > 100 µM

System 786-0 renal. Read-out TGI. Item `CC(=O)Oc1ccccc1` . Report value. > 100 µM

System 786-0 renal. Read-out TGI. Item `C[C@@H]1C[C@H]2[C@@H]3CCC4=CC(=O)C=C[C@]4(C)[C@@]3(F)[C@@H](O)C[C@]2(C)[C@@]1(O)C(=O)CO` . Report value. > 100 µM

System 786-0 renal. Read-out TGI. Item `Cc1ccc2c(c1)SC1=Nc3sc4cc(C)ccc4[n+]3CN12` . Report value. > 100 µM

System 786-0 renal. Read-out TGI. Item Cc1ccc(CC(Cc2ccccc2C)C(=O)O)c(C(=O)O)c1 (stereo not drawn) . Report value. > 100 µM

System 786-0 renal. Read-out TGI. Item `CSc1ccc2c(cc1=O)[C@@H](NC(=O)c1cccc([N+](=O)[O-])c1)CCc1cc(O)c(O)c(O)c1-2` . Report value. > 100 µM

System 786-0 renal. Read-out TGI. Item `O=C1NC(=C(Cl)Cl)/C(=N/S(=O)(=O)N2CCCCC2)N1` . Report value. 7.74 µM

System 786-0 renal. Read-out TGI. Item `CN(Cc1ccccc1)Cn1ccnc1` . Report value. > 100 µM

System 786-0 renal. Read-out TGI. Item COC1/C=C(C)/C=C/C(C)/C=C/C(=O)OC(/C(C)=C/C=C(\C)CNC(=O)[C@H](CO)NC=O)C(C)/C=C/C=C/C(OC)CC/C=C(C)/C=C/C1 (stereo partly drawn) . Report value. > 1 µM

System 786-0 renal. Read-out TGI. Item CC1(C)NC(=O)C(NC(=O)C(N)CC(=O)O)CCCCNC(=O)CCNC1=O (stereo not drawn) (H-DK[Aib][βAla]; lactam 2-C; configuration not given here) . Report value. > 100 µM

System 786-0 renal. Read-out TGI. Item CC(C)(O)C(O)COc1c2c(cc3oc(=O)ccc13)OCO2 (stereo not drawn) . Report value. > 100 µM

System 786-0 renal. Read-out TGI. Item `Cc1c(C)n(CCCN2CCN(C)CC2)c2ccc(Oc3cccc(C(=O)N4CCN(CCc5ccc(F)cc5)CC4)c3)cc12` . Report value. 2.95 µM

System 786-0 renal. Read-out TGI. Item `CC(C)(C)C1=CC(=C(P(=O)(O)O)P(=O)(O)O)C=C(C(C)(C)C)C1=O` . Report value. > 50 µM

System 786-0 renal. Read-out TGI. Item `C=CCN(c1cc(OC)c(NC(C)=O)cc1[N+](=O)[O-])S(C)(=O)=O` . Report value. > 100 µM

System 786-0 renal. Read-out TGI. Item `COc1ccc2c(c1)Cc1c(NCCN(C)C)ccc(C(=O)NCCCN(C)CCCNC(=O)c3ccc(NCCN(C)C)c4c3Nc3ccc(OC)cc3C4)c1N2` . Report value. 0.985 µM

System 786-0 renal. Read-out TGI. Item CC(C)C(NC(=O)C(C(C)C)N(C)C)C(=O)N(C)C(C(=O)N1CCCC1C(=O)N1CCCC1C(=O)NCc1ccccc1)C(C)C (stereo not drawn) (ξNMe2Val-V[NMeV]PP-NHBn; configuration not given here) . Report value. > 100 µM

System 786-0 renal. Read-out TGI. Item `O=C(/C=C\c1ccccc1O)c1ccc(O)cc1O` . Report value. > 100 µM

System 786-0 renal. Read-out TGI. Item `COc1cc(OC)cc(OCc2nc3cc(C(F)(F)F)ccc3nc2-c2ccccc2)c1` . Report value. > 100 µM

System 786-0 renal. Read-out TGI. Item CN(CCS(=O)(=O)N1C(=O)C2CCCN2C(=O)[C@@H]1Cc1ccccc1)C(=O)OCc1ccccc1 (stereo partly drawn) . Report value. > 100 µM

System 786-0 renal. Read-out TGI. Item `CCOC(=O)c1cnc(N(C)C)nc1SC(=N)N` . Report value. > 100 µM

System 786-0 renal. Read-out TGI. Item N#CC12C(=O)NC(=O)C1(C#N)C1C=CC2CC1 (stereo not drawn) . Report value. > 100 µM
